STUDY TARGET: human recombinant dopamine D3 receptor (Homo sapiens (Human), UniProt P35462)
Sequence (P35462 whole entry): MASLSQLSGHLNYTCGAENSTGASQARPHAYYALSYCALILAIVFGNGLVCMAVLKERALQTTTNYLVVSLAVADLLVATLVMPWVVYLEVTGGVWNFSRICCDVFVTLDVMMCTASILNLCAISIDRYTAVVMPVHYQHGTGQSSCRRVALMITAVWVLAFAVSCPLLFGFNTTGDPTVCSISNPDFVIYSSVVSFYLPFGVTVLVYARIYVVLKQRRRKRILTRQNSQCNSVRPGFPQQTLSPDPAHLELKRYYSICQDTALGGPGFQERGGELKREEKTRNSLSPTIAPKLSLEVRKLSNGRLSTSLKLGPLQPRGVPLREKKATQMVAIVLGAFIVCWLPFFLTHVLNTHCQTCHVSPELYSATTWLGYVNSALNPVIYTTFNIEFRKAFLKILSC
RUN DESCRIPTION: Test of binding inhibition for dopamine D3 receptor ([3H]-Methylspiperone SPA)
STATED CONDITIONS: Jump-In HEK cell membranes, 2 nM [3H]-Methylspiperone, 120 min at 25° C.; read-out: hD3_Ki
REPORTED METRIC: log10(Ki) (log10 of the value in nM)
All values: base-10 log of Ki in nM.

Cn1cc(CC(=O)N[C@H]2CC[C@H](CCN3CCc4nc(OCC(C)(F)F)sc4CC3)CC2)c(F)n1 [I′-27]: -1.05
Cc1nc(CC(=O)N[C@H]2CC[C@](F)(CCN3CCc4ccc(CCC(F)(F)F)nc4CC3)CC2)nn1C [III-2]: -0.80
Cc1cnc(CC(=O)NC23CCC(CCN4CCc5ccc(OCC(C)(F)F)nc5CC4)(CC2)CC3)o1 [II-14]: -0.64

# map each compound to its log10(Ki)
1. C[C@@H](Oc1nc2c(s1)CCN(CC[C@H]1CC[C@H](NC(=O)c3cccc4nn(C)cc34)CC1)CC2)C(F)(F)F [Example I-083]
2. Cc1ncc(CC(=O)N[C@H]2CC[C@H](CCN3CCc4cc(F)c(OCC(F)F)nc4CC3)CC2)o1 [I′-57]
3. Cc1ncc(CC(=O)N[C@H]2CC[C@H](CCN3CCc4nc(OCC(F)(F)F)sc4CC3)CC2)cn1 [Example I-110]
4. CC[C@@H](C)Oc1ccc2c(n1)CCN(CC[C@]1(F)CC[C@@H](NC(=O)Cc3nnc(C)o3)CC1)CC2 [Example I-108]
5. O=C(NC12CCC(CCN3CCc4nc(OCC(F)(F)F)sc4CC3)(CC1)CC2)c1cccnc1C(F)F [II-3]
6. CC(C)Oc1ccc2c(n1)CCN(CC[C@H]1CC[C@H](NC(=O)c3cccc4c(=O)n(C)ccc34)CC1)CC2 [Example I-063]

1: -0.80; 2: -0.28; 3: -0.77; 4: -0.05; 5: -0.54; 6: -0.21
